stated-conditions: 293.15 K; 101.33 kPa; Liquid; Vibrating tube method
Items are presented alongside their recorded mass density.
Dear colleague, please return just the value in kg/m3, with no unit written.

Worked cases, answers included:
CCCCn1cc[n+](C)c1.N#C[B-](C#N)(C#N)C#N [1-butyl-3-methyl-1H-imidazolium tetracyanoborate]; 1013.59
CCCCCCCCn1cc[n+](C)c1.N#CC(=C=[N-])C#N [1-methyl-3-octylimidazolium tricyanomethanide]; 1003.75
CCCCCCCCn1cc[n+](C)c1.N#C[B-](C#N)(C#N)C#N [1-methyl-3-octylimidazolium tetracyanoborate]; 978.62
CCCCCCCCCC[n+]1ccn(C)c1.N#C[C-](C#N)C#N [3-decyl-1-methylimidazolium tricyanomethanide]; 986.25

# input for lookup
Ask: # mass density lookup, item CCCCCC[n+]1ccn(C)c1.N#C[C-](C#N)C#N [3-hexyl-1-methylimidazolium tricyanomethanide]
Result: 1023.92

###

stated-conditions: 338.15 K; 101.33 kPa; Liquid; Vibrating tube method
Items are presented alongside their recorded mass density.
Dear colleague, please return just the value in kg/m3, with no unit written.

CCCCCCCCCC[n+]1ccn(C)c1.N#C[C-](C#N)C#N [3-decyl-1-methylimidazolium tricyanomethanide]; 958.31
CCCCCC[n+]1ccn(C)c1.N#C[C-](C#N)C#N [3-hexyl-1-methylimidazolium tricyanomethanide]; 994.74
CCCCn1cc[n+](C)c1.N#C[B-](C#N)(C#N)C#N [1-butyl-3-methyl-1H-imidazolium tetracyanoborate]; 980.5

Ask: # mass density lookup, item CCCCCCCCn1cc[n+](C)c1.N#CC(=C=[N-])C#N [1-methyl-3-octylimidazolium tricyanomethanide]
Result: 975.25
